Tested on: wheals induced by intradermal injections of histamine
EXPERIMENT DESCRIPTION: reduction by 50% of wheals induced by intradermal injections of histamine into guinea pigs
Type: in vivo, guinea pig
TEST CONDITIONS: Cavia porcellus, po, 1 h, orally administered one hour prior to the histamine injection, read-out: ED50 (amount required to reduce by 50% wheals induced by intradermal injections of histamine)
Measured ED50 by item
MEASUREMENT LABEL: ED50 (mg/kg)

{"COMPOUND": "CC(C)(C)c1ccc(C(=O)CCCN2CCC(C(O)(c3ccccc3)c3ccccc3)CC2)cc1.Cl [Example 6]", "UNIT SPEC": "mg/kg", "MEASURED RESULT": 1.8}
{"COMPOUND": "Cc1ccc(C(=O)CCCN2CCC(C(O)(c3ccccc3)c3ccccc3)CC2)cc1.Cl [Example 5]", "UNIT SPEC": "mg/kg", "MEASURED RESULT": 1.9}
{"COMPOUND": "Cl.O=C(CCCN1CCC(C(O)(c2ccccc2)c2ccccc2)CC1)c1cccs1 [Example 4]", "UNIT SPEC": "mg/kg", "MEASURED RESULT": 3.1}
{"COMPOUND": "O=C(CCCN1CCC(C(O)(c2ccccc2)c2ccccc2)CC1)c1ccc(N2CCCCC2)cc1 [Example 9]", "UNIT SPEC": "mg/kg", "MEASURED RESULT": 3.4}
